Test system: L1210 leukemia ip in BDF1 mice, survival T/C
test-name: NCI In Vivo Anticancer Drug Screen. Data for tumor model L1210 Leukemia (intraperitoneal) in B6D2F1 (BDF1) mice
condition-info: endpoint: mean survival time; dose: 200.0 mg/kg/injection; schedule: Q01DX001 (ip); vehicle: saline; higher = longer survival
Inconclusive results and toxic doses are left out.
The entries below come with measured T/C values attached.

For this molecule ( Nc1ncnc2c1nc1n2C2OC(CO)C(O)C2O1 (stereo not given) ), measured T/C is 109 % of control

For this molecule ( "O=[N+]([O-])c1ccc2nncn2c1" ), measured T/C is 103 % of control

For this molecule ( "O=C(Nc1ccc([N+](=O)[O-])cc1)c1cc(N2CCCC2)ccn1" ), measured T/C is 96 % of control

For this molecule ( "Cc1ccc(NC(=O)/C=N/O)cc1C" ), measured T/C is 102 % of control

For this molecule ( "Cc1ccon1" ), measured T/C is 100 % of control

* * *

Test system: L1210 leukemia ip in BDF1 mice, survival T/C
test-name: NCI In Vivo Anticancer Drug Screen. Data for tumor model L1210 Leukemia (intraperitoneal) in B6D2F1 (BDF1) mice
condition-info: endpoint: mean survival time; dose: 150.0 mg/kg/injection; schedule: Q01DX001 (ip); vehicle: saline; higher = longer survival
Toxic doses and inconclusive results are not listed.
recorded-metric: T/C

CCCC1CCCC(=O)N1 (configuration not stated) = 98 % of control
O=C(Cc1ccc(CC(=O)NO)cc1)NO = 96 % of control
CC(C)C1(Cc2ccccc2)C(=O)NC(=S)NC1=O = 93 % of control
OCC(O)C(O)C(O)C(Sc1ccccc1)Sc1ccccc1 (configuration not stated) = 102 % of control
CC/C=C(\CCC)C1(CC)C(=O)NC(=O)NC1=O = 105 % of control

So the reported T/C for "CC(C)(c1ccccc1)C(C(=O)O)C(=O)O" , on L1210 leukemia ip in BDF1 mice, survival T/C, turned out to be 98 % of control

So the reported T/C for "CN1CN(c2ccccc2)C2(CCNCC2)C1=O" , on L1210 leukemia ip in BDF1 mice, survival T/C, turned out to be 96 % of control

* * *

The entries below come with measured T/C values attached.
System: L1210 leukemia ip in BDF1 mice, survival T/C
test-name: NCI In Vivo Anticancer Drug Screen. Data for tumor model L1210 Leukemia (intraperitoneal) in B6D2F1 (BDF1) mice
condition-info: endpoint: mean survival time; dose: 6.25 mg/kg/injection; schedule: Q01DX009 (ip); vehicle: saline with Tween-80; higher = longer survival
Inconclusive results and toxic doses are left out.

For this molecule ( "O=c1cc(CBr)c2ccccc2[nH]1" ), measured T/C is 105 % of control

For this molecule ( "NC(=O)NN=C1CSSC1" ), measured T/C is 94 % of control

For this molecule ( "CC(C)CCOc1ccc(N)c([N+](=O)[O-])c1" ), measured T/C is 105 % of control

For this molecule ( "N#CC1(C#N)C2C=CC(C2)C1(C#N)C#N" ), measured T/C is 97 % of control

For this molecule ( "O=c1oc(Cl)cc2oc(=O)n(-c3ccccc3)c(=O)c12" ), measured T/C is 106 % of control

For this molecule ( "Cc1ccc([NH-])cc1.Cc1ccc([NH-])cc1.[Cl][Pt+2][Cl]" ), measured T/C is 101 % of control

For this molecule ( "c1ccc(-c2ccno2)cc1" ), measured T/C is 98 % of control
